# Test system: MALME-3M melanoma
# TEST DETAILS: NCI-60 one-dose screen, 48 h
# CONDITIONS USED: 10 µM unless noted
This is part of a sample that, as a whole, favours compounds with a hit. Of some 83,000 tested, about 20% had one in any assay. Active and inactive are the calls of the source. How the source made its calls: active means growth percent below 10; inactive means the rest.
Labels: yes for active, no for inactive

| COMPOUND | CAT |
| --- | --- |
| O=C(CN1CCCCC1)Nc1ccc2oc(=O)ccc2c1 | no |
| COc1ccc(-n2nc(C)c3c(Nc4ccc(NC(=O)Nc5cc(C(F)(F)F)ccc5F)cc4)ncnc32)cc1 | no |
| CCOC(=O)C(C)(C#N)C1C=CCCC1 (configuration not stated) | no |
| Cc1[nH]c(-c2cc(N)ccc2Cl)c2c1C(=O)CCCC2 | no |
| CCCCn1c(-c2ccc(C(=O)O/N=C(\N)c3ccc4c(c3)OCO4)cc2)nc(-c2ccccc2)c1-c1ccccc1 | no |
| O=c1ccccc(-c2ccc(-c3ccco3)cc2)c1O | no |
| C=C(C)[C@@H]1CC[C@]2(C(N)=O)CC[C@]3(C)[C@H](CC[C@@H]4[C@@]5(C)C/C(=C/c6ccco6)C(=O)C(C)(C)[C@@H]5CC[C@]43C)[C@@H]12 | no |
| CC1=C[C@H]2c3c(c(O)c(O)c4oc(-c5ccccc5)cc(=O)c34)[C@H](c3cc(O)c(O)c4oc(-c5ccccc5)cc(=O)c34)[C@H]2C(C)(C)C1 | yes |
| C=CC(=O)Nc1cccc(-c2nc(SC)nc(NCCN3CCOCC3)c2C#N)c1 | no |
| Cn1cc(C(=O)c2nc(-c3c[nH]c4ccc(F)cc34)no2)c2cc(F)ccc21 | no |
| Cc1nn(-c2cc(=O)[nH]c3ccccc23)c(N)c1C#N | no |
| CC(C)(C)c1cc(C(C)(C)C)cc(S(=O)(=O)Nc2cc3ccccc3cc2C(=O)NCCN)c1 | no |

* * *

# System: HCT-116 colon
# TEST DETAILS: NCI-60 one-dose screen, 48 h
# CONDITIONS USED: 10 µM unless noted
# Protocol: Growth inhibition of the HCT-116 human tumor cell line is measured as a screen for anti-cancer activity. Cells are grown in 96 well plates and exposed to the test compound for 48 hours. Compounds are tested at a single concentration, which is 10^-5 M for most compounds. The reported endpoint is percent growth (GI% or GIPRCNT), where numbers from 0 - 100% represent growth inhibition, and numbers from -100% - 0 represent cell death. For example, a value of 40 represents 60% growth inhibition. […]
Compounds without any hit were thinned out: in the full panel of roughly 83,000, 20% have a hit. Active and inactive are the calls of the source. How the source made its calls: active means growth percent below 10; inactive means the rest.
Labels: active, inactive

| SAMPLE SMILES | CAT |
| --- | --- |
| Cc1cc(C)nc(SC2=C(Nc3ccc(O)cc3)C(=O)N(Cc3ccccc3)C2=O)n1 | inactive |
| COc1ccc(/C=C\c2cc(OC)c(OC)c(OC)c2)cc1OCC(=O)Nc1ccc2nc(C)sc2c1 | inactive |
| CCN(CC)c1ccc(/C=N\NC(=O)/C=C/C=C/c2ccc3c(c2)OCO3)c(O)c1 | active |
| C=CC(=O)Nc1cccc(-c2nc(SC)nc(Nc3cccc(OC)c3)c2C#N)c1 | inactive |
| O=C(/C=C/c1cc(CN2CCOCC2)c(O)c2ncccc12)c1cc(CN2CCOCC2)c(O)c2ncccc12 | inactive |
| Nc1ccc(S(=O)(=O)O)c2ccc(N=Nc3ccc(N=Nc4ccc(S(=O)(=O)O)cc4)c4ccccc34)c(O)c12 | inactive |
| COc1nc2c(c(=O)n1C)CN(Cc1ccccc1)C=N2 | inactive |
| C=C1c2nc3ccccc3n2C=C(c2cccc(Cl)c2)N1Cc1ccc(OC)cc1 | inactive |
| N#CN1CC[C@H](C(=O)Nc2cc3cc(C(N)=O)ccc3cn2)C1 | active |

* * *

# Test system: CCRF-CEM leukemia
# TEST DETAILS: NCI-60 one-dose screen, 48 h
# CONDITIONS USED: 10 µM unless noted
This is part of a sample that, as a whole, favours compounds with a hit. Of some 83,000 tested, about 20% had one in any assay. The source made the active and inactive calls. How the source made its calls: active means growth percent below 10; inactive means the rest.
Possible outcomes: yes (1) for active, no (0) for inactive

| COMPOUND | TARGET OR TEST SYSTEM | CAT |
| --- | --- | --- |
| O=C(N(c1ccccc1)c1ccccc1)n1ccc2nc(Cl)nc(Cl)c21 | CCRF-CEM leukemia | no (0) |
| O=C1/C(=C/c2ccc(Cl)cc2)SC(=S)N1CCc1ccc(O)cc1 | CCRF-CEM leukemia | no (0) |
| COc1ccc2c(c1)CC/C(=C\c1cncc(Br)c1)C2=O | CCRF-CEM leukemia | no (0) |
| Cc1ccc(O)c(N2C(=NCc3ccco3)NS(=O)(=O)c3cnccc32)c1 | CCRF-CEM leukemia | no (0) |
| CC(=O)NCC1c2c(n(C)c3c(Cl)c(Cl)ccc23)C(=O)NC1(C)C (centres undefined) | CCRF-CEM leukemia | no (0) |
| Nc1ccc(-c2cc3c(Nc4ccc(Oc5cccc(C(F)(F)F)c5)c(Cl)c4)ncnc3s2)cc1 | CCRF-CEM leukemia | no (0) |
| O=C(Nc1ccc(Cl)cc1)c1cc2cc(F)ccc2cc1O | CCRF-CEM leukemia | no (0) |
| Cn1c(NCCc2ccc(O)c(O)c2)nc2c1c(=O)n(Cc1ccc(Cl)c(Cl)c1)c(=O)n2C | CCRF-CEM leukemia | no (0) |
| Brc1ccc(-c2csc(Nc3ccccn3)n2)cc1 | CCRF-CEM leukemia | no (0) |
| O=C1c2cccc3cccc(c23)C(=O)N1CCCCCN1CCN(CCCCCOc2ccc(-c3nc4ccc(N5CCOCC5)cc4[nH]3)cc2)CC1 | CCRF-CEM leukemia | yes (1) |
| O=C1NC(=S)N[C@H]1CC(=O)n1cnc2ccccc21 | CCRF-CEM leukemia | no (0) |
| Cn1cc(-c2nonc2-c2cn(C)c3ccc(F)cc23)c2ccccc21 | CCRF-CEM leukemia | no (0) |
| CN1CCN(Cc2ccc(NC(=O)c3cncc(C#Cc4cncn5ccnc45)c3)cc2C(F)(F)F)CC1 | CCRF-CEM leukemia | no (0) |
| CCc1nc(N)nc(N)c1C#CC(C)c1cc(-c2ccnc(C)c2)c2oc(C)nc2c1 (centres undefined) | CCRF-CEM leukemia | yes (1) |
| CC1CCNC(C)C1 (centres undefined) | CCRF-CEM leukemia | no (0) |
| CC(O)CN1CC(O)=C(c2nc3ccccc3s2)C1=N (centres undefined) | CCRF-CEM leukemia | no (0) |
| CC(=O)c1cc(C(=O)c2ccc3c(c2)Sc2ccccc2N3)n2ccccc12 | CCRF-CEM leukemia | yes (1) |
| NC(=O)c1cc(Br)ccc1NC(=O)/C=C/c1ccccc1 | CCRF-CEM leukemia | yes (1) |
| O=C1c2ccccc2C(=O)c2c(N=Nc3[nH]c(=S)[nH]c3O)cccc21 | CCRF-CEM leukemia | no (0) |
| CCn1c(O)c(/C=N/NC(=O)C(C)c2ccc(CC(C)C)cc2)sc1=S (centres undefined) | CCRF-CEM leukemia | no (0) |
| OCC(O)c1nc2ccc3[nH]ncc3c2c2c1CCCC2 (centres undefined) | CCRF-CEM leukemia | yes (1) |
| CN(Cc1cc(Cl)cc(Cl)c1O)Cc1cc(Cl)cc(Cl)c1O | CCRF-CEM leukemia | no (0) |
| C=CC(COC(c1ccccc1)(c1ccccc1)c1ccccc1)N(CC)CC (centres undefined) | CCRF-CEM leukemia | no (0) |
| COc1ccc(S(=O)(=O)N2CC3(COC3)C2)cc1NC(=O)c1[nH]c(C)c2c1CCCCC2=O | CCRF-CEM leukemia | no (0) |
| COc1cc2c(cc1O)CC[C@@H]1[C@@H]2CC[C@]2(C)[C@@H](OCCN(C)C)CC[C@@H]12 | CCRF-CEM leukemia | no (0) |
| O=C(CCCCC(=O)N/N=C\c1ccccc1O)N/N=C\c1ccccc1O | CCRF-CEM leukemia | no (0) |
| CCOc1cc2ncc(C#N)c(Nc3ccc(OCc4cccc(F)c4)c(Cl)c3)c2cc1NC(=O)CCCCC1CCSS1 (centres undefined) | CCRF-CEM leukemia | no (0) |
| O=c1nc2oc3ccc4ccccc4c3cc-2s1 | CCRF-CEM leukemia | no (0) |
| COc1cc2nc(N3CCCC3)nc(NCc3ccccc3)c2cc1OC | CCRF-CEM leukemia | yes (1) |
| Cn1c(NCCc2ccc(O)c(O)c2)nc2c1c(=O)n(Cc1ccc(Br)cc1)c(=O)n2C | CCRF-CEM leukemia | no (0) |
| c1csc(C2=NN3C(C2)c2ccccc2OC3c2ccncc2)c1 (centres undefined) | CCRF-CEM leukemia | no (0) |
| C=CC(=O)Nc1cccc(-c2nc(SC)nc(NCCc3ccc(OC)c(OC)c3)c2C#N)c1 | CCRF-CEM leukemia | no (0) |
| COc1cc2c(cc1-c1c(C)noc1C)ncc1nc(-c3ccccn3)n([C@H](C)COC(F)F)c12 | CCRF-CEM leukemia | no (0) |
| COc1ccc(-c2nc3ccc(-c4nc5ccc(N6CCN(c7ccc(F)cc7)CC6)cc5[nH]4)cc3[nH]2)cc1OC | CCRF-CEM leukemia | no (0) |
| CN1CCN(c2nc(NCCCCNc3ccnc4cc(Cl)ccc34)c3ccccc3n2)CC1 | CCRF-CEM leukemia | no (0) |
| Nc1ccc(S(=O)(=O)O)c2ccc(N=Nc3ccc(N=Nc4ccc(S(=O)(=O)O)cc4)c4ccccc34)c(O)c12 | CCRF-CEM leukemia | no (0) |
| Cc1cc(N2CCCCC2)nc(NC2CCCC(Nc3ccnc4cc(Cl)ccc34)C2)n1 (centres undefined) | CCRF-CEM leukemia | yes (1) |
| NS(=O)(=O)c1ccc(CN=C2NC(=O)S/C2=C\c2ccc(Br)cc2)cc1 | CCRF-CEM leukemia | no (0) |
| CCNC(=O)Oc1ccc(/C(=C(\C)c2ccc(Cl)cc2)c2ccc(OCCN3CCCCC3)cc2)cc1 | CCRF-CEM leukemia | no (0) |
